- measuredOn: Serine/threonine-protein kinase pim-2 (Homo sapiens)
- assayText: Binding affinity to human recombinant PIM2 expressed in Escherichia coli assessed as thermal shift by differential scanning fluorimetry
Listed here: items and their measured Tm.
readoutName: Tm

>  <molecule>
COc1cc(O)c2c(c1)/C=C/CC[C@H](C)C(=O)CCC[C@H](C)OC2=O

>  <measuredOn>
Serine/threonine-protein kinase pim-2 (Homo sapiens)

>  <readoutName>
Tm

>  <result>
< 2 °C

$$$$
>  <molecule>
COc1cc2c(c(OC)c1)C(=O)O[C@@H](C)CCCC(=O)[C@@H](C)CC/C=C/2

>  <measuredOn>
Serine/threonine-protein kinase pim-2 (Homo sapiens)

>  <readoutName>
Tm

>  <result>
< 2 °C

$$$$
>  <molecule>
C[C@H]1CCCC(=O)CCC/C=C/c2cc(O)cc(O)c2C(=O)O1

>  <measuredOn>
Serine/threonine-protein kinase pim-2 (Homo sapiens)

>  <readoutName>
Tm

>  <result>
2.6 °C

$$$$

---

Listed here: items and their measured Tm.
- measuredOn: Carbonyl reductase [NADPH] 1 (Homo sapiens) (UniProt P16152)
- Sequence (P16152 whole entry): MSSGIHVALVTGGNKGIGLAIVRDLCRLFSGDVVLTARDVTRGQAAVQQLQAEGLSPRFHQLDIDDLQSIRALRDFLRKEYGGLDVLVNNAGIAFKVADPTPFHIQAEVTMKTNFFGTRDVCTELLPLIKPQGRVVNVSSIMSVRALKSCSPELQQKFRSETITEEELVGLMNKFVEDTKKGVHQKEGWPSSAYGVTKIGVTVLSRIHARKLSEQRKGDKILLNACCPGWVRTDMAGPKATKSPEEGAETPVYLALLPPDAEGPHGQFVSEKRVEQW
- assayText: Binding affinity to human recombinant carbonyl reductase 1 expressed in Escherichia coli assessed as thermal shift by differential scanning fluorimetry in presence of NADPH

>  <molecule>
O=C1C[C@@H](c2ccc(O)cc2)Oc2cc(O)cc(O)c21

>  <Tm>
< 2 °C

$$$$
>  <molecule>
COc1cc(O)c2c(c1)oc(=O)c1c3cc(O)c(O)cc3oc21

>  <Tm>
< 2 °C

$$$$
>  <molecule>
O=c1c(O)c(-c2ccc(O)c(O)c2)oc2cc(O)cc(O)c12

>  <Tm>
< 2 °C

$$$$
>  <molecule>
C[C@@H]1C[C@H]2O[C@@H]2/C=C\C=C\C(=O)Cc2c(Cl)c(O)cc(O)c2C(=O)O1

>  <Tm>
< 2 °C

$$$$
>  <molecule>
Oc1cc(Cl)ccc1Oc1ccc(Cl)cc1Cl

>  <Tm>
< 2 °C

$$$$

---

- measuredOn: Heat shock protein HSP90 (Homo sapiens) (UniProt P07900+P08238)

>  <molecule>
C[C@H]1CCCC(=O)CCC/C=C/c2cc(O)cc(O)c2C(=O)O1

>  <measuredOn>
Heat shock protein HSP90 (Homo sapiens) (UniProt P07900+P08238)

>  <Tm>
2.3 °C

$$$$
>  <molecule>
COc1cc2c(c(OC)c1)C(=O)O[C@@H](C)CCC[C@@H](O)[C@@H](C)CC/C=C/2

>  <measuredOn>
Heat shock protein HSP90 (Homo sapiens) (UniProt P07900+P08238)

>  <Tm>
< 2 °C

$$$$
>  <molecule>
COc1cc(O)c2c(c1)/C=C/CC[C@H](C)C(=O)CCC[C@H](C)OC2=O

>  <measuredOn>
Heat shock protein HSP90 (Homo sapiens) (UniProt P07900+P08238)

>  <Tm>
< 2 °C

$$$$
>  <molecule>
COc1cc2c(c(OC)c1)C(=O)O[C@@H](C)CCCC(=O)[C@@H](C)CC/C=C/2

>  <measuredOn>
Heat shock protein HSP90 (Homo sapiens) (UniProt P07900+P08238)

>  <Tm>
< 2 °C

$$$$
>  <molecule>
C[C@H]1CCCC(=O)[C@@H](C)CC/C=C/c2cc(O)cc(O)c2C(=O)O1

>  <measuredOn>
Heat shock protein HSP90 (Homo sapiens) (UniProt P07900+P08238)

>  <Tm>
< 2 °C

$$$$

---

- measuredOn: Carbonyl reductase [NADPH] 1 (Homo sapiens)
- Sequence (P16152 whole entry): as above
- assayText: Binding affinity to human recombinant carbonyl reductase 1 expressed in Escherichia coli assessed as NADPH oxidation using isatin as substrate

>  <compound>
C[C@H]1CCCC(=O)[C@@H](C)CC/C=C/c2cc(O)cc(O)c2C(=O)O1

>  <measuredOn>
Carbonyl reductase [NADPH] 1 (Homo sapiens)

>  <unitString>
µM

>  <Ki>
0.04

$$$$
>  <compound>
Oc1cc(Cl)ccc1Oc1ccc(Cl)cc1Cl [TRICLOSAN]

>  <measuredOn>
Carbonyl reductase [NADPH] 1 (Homo sapiens)

>  <unitString>
µM

>  <Ki>
0.06

$$$$
>  <compound>
COc1cc(O)c2c(c1)oc(=O)c1c3cc(O)c(O)cc3oc21 [WEDELOLACTONE]

>  <measuredOn>
Carbonyl reductase [NADPH] 1 (Homo sapiens)

>  <unitString>
µM

>  <Ki>
0.6

$$$$
>  <compound>
C[C@@H]1C[C@H]2O[C@@H]2/C=C\C=C\C(=O)Cc2c(Cl)c(O)cc(O)c2C(=O)O1 [RADICICOL]

>  <measuredOn>
Carbonyl reductase [NADPH] 1 (Homo sapiens)

>  <unitString>
µM

>  <Ki>
0.52

$$$$
>  <compound>
O=C1C[C@@H](c2ccc(O)cc2)Oc2cc(O)cc(O)c21 [NARINGENIN]

>  <measuredOn>
Carbonyl reductase [NADPH] 1 (Homo sapiens)

>  <unitString>
µM

>  <Ki>
3.43

$$$$
>  <compound>
COc1ccc(-c2coc3cc(O)cc(O)c3c2=O)cc1 [BIOCHANIN]

>  <measuredOn>
Carbonyl reductase [NADPH] 1 (Homo sapiens)

>  <unitString>
µM

>  <Ki>
2.03

$$$$
>  <compound>
O=c1cc(-c2ccccc2)oc2cc(O)cc(O)c12 [CHRYSIN]

>  <measuredOn>
Carbonyl reductase [NADPH] 1 (Homo sapiens)

>  <unitString>
µM

>  <Ki>
0.11

$$$$

---

Listed here: items and their measured Tm.
- measuredOn: Mitogen-activated protein kinase 6 (Homo sapiens)
- assayText: Binding affinity to human recombinant MAPK6 expressed in Escherichia coli assessed as thermal shift by differential scanning fluorimetry

>  <molecule>
C[C@@H]1C[C@H]2O[C@@H]2/C=C\C=C\C(=O)Cc2c(Cl)c(O)cc(O)c2C(=O)O1

>  <Tm>
< 2 °C

$$$$
>  <molecule>
COc1cc2c(c(OC)c1)C(=O)O[C@@H](C)CCCC(=O)[C@@H](C)CC/C=C/2

>  <Tm>
< 2 °C

$$$$
>  <molecule>
COc1cc2c(c(OC)c1)C(=O)O[C@@H](C)CCC[C@@H](O)[C@@H](C)CC/C=C/2

>  <Tm>
< 2 °C

$$$$

---

Listed here: items and their measured Tm.
- measuredOn: Serine/threonine-protein kinase 10 (Homo sapiens) (UniProt O94804)
- Sequence (O94804 whole entry, looked up): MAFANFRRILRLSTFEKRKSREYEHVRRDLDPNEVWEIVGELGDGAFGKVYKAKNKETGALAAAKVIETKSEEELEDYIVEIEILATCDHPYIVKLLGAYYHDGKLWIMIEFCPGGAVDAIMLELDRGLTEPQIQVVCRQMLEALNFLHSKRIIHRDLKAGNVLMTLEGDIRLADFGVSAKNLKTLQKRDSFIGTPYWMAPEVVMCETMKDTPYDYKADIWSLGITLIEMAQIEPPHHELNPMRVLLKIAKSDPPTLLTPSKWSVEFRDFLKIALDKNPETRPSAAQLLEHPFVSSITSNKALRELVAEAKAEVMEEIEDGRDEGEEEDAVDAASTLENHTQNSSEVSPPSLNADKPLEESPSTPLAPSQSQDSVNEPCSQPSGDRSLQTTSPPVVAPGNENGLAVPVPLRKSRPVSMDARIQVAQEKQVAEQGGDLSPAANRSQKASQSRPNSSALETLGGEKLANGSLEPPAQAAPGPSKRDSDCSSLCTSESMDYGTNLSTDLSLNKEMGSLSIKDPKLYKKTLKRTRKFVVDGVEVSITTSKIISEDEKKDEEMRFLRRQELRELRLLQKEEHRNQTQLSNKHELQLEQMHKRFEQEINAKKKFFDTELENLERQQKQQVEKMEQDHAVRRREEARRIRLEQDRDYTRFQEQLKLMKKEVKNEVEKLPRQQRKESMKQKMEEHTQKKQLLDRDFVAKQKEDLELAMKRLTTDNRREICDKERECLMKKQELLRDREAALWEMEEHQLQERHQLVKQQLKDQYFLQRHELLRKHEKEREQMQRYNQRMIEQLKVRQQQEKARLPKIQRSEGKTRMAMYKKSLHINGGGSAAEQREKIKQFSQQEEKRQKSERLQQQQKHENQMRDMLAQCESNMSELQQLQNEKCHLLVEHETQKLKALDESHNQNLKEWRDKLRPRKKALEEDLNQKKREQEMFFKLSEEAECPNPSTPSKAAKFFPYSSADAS
- assayText: Binding affinity to human recombinant LOK expressed in Escherichia coli assessed as thermal shift by differential scanning fluorimetry
readoutName: Tm

>  <molecule>
COc1cc2c(c(OC)c1)C(=O)O[C@@H](C)CCCC(=O)[C@@H](C)CC/C=C/2

>  <result>
< 2 °C

$$$$
>  <molecule>
COc1cc(O)c2c(c1)/C=C/CC[C@H](C)C(=O)CCC[C@H](C)OC2=O

>  <result>
< 2 °C

$$$$
>  <molecule>
C[C@H]1CCCC(=O)CCC/C=C/c2cc(O)cc(O)c2C(=O)O1

>  <result>
4.6 °C

$$$$
>  <molecule>
COC1=C2C[C@@H](C)C[C@H](OC)[C@H](O)[C@@H](C)/C=C(\C)[C@H](OC(N)=O)[C@@H](OC)/C=C\C=C(/C)C(=O)NC(=CC1=O)C2=O

>  <result>
< 2 °C

$$$$

---

- measuredOn: Carbonyl reductase [NADPH] 1 (Homo sapiens)
- assayText: Binding affinity to human recombinant carbonyl reductase 1 expressed in Escherichia coli assessed as thermal shift by differential scanning fluorimetry in presence of NADP+
Kindly apply the following: TRUE if Tm is less than 4 °C, FALSE in every other case.

>  <compound>
Oc1cc(Cl)ccc1Oc1ccc(Cl)cc1Cl [TRICLOSAN]

>  <class>
TRUE

$$$$
>  <compound>
C[C@@H]1C[C@H]2O[C@@H]2/C=C\C=C\C(=O)Cc2c(Cl)c(O)cc(O)c2C(=O)O1 [RADICICOL]

>  <class>
FALSE

$$$$
>  <compound>
O=c1c(-c2ccc(O)cc2)coc2cc(O)cc(O)c12

>  <class>
TRUE

$$$$
>  <compound>
COc1cc2c(c(OC)c1)C(=O)O[C@@H](C)CCC[C@@H](O)[C@@H](C)CC/C=C/2

>  <class>
TRUE

$$$$
>  <compound>
COc1cc2c(c(OC)c1)C(=O)O[C@@H](C)CCCC(=O)[C@@H](C)CC/C=C/2

>  <class>
TRUE

$$$$
>  <compound>
COc1cc(O)c2c(c1)/C=C/CC[C@H](C)C(=O)CCC[C@H](C)OC2=O

>  <class>
TRUE

$$$$
>  <compound>
C[C@H]1CCCC(=O)CCC/C=C/c2cc(O)cc(O)c2C(=O)O1

>  <class>
TRUE

$$$$
>  <compound>
COc1ccc(-c2coc3cc(O)cc(O)c3c2=O)cc1 [BIOCHANIN]

>  <class>
TRUE

$$$$
>  <compound>
O=c1cc(-c2ccccc2)oc2cc(O)cc(O)c12 [CHRYSIN]

>  <class>
FALSE

$$$$
>  <compound>
COC1=C2C[C@@H](C)C[C@H](OC)[C@H](O)[C@@H](C)/C=C(\C)[C@H](OC(N)=O)[C@@H](OC)/C=C\C=C(/C)C(=O)NC(=CC1=O)C2=O

>  <class>
TRUE

$$$$
>  <compound>
COc1cc(O)c2c(c1)oc(=O)c1c3cc(O)c(O)cc3oc21 [WEDELOLACTONE]

>  <class>
FALSE

$$$$
>  <compound>
O=C1C[C@@H](c2ccc(O)cc2)Oc2cc(O)cc(O)c21 [NARINGENIN]

>  <class>
TRUE

$$$$
>  <compound>
O=c1c(O)c(-c2ccc(O)c(O)c2)oc2cc(O)cc(O)c12

>  <class>
TRUE

$$$$

Origin of values: ChEMBL document CHEMBL1140872
